- target.system: T1, thermolysin-cleaved EBOV GP on Jurkat-GP cells (cleaved GP) (Zaire ebolavirus, Makona (GP1 core …, strain))
- T1 chain 1: not shown
- T1 chain 2: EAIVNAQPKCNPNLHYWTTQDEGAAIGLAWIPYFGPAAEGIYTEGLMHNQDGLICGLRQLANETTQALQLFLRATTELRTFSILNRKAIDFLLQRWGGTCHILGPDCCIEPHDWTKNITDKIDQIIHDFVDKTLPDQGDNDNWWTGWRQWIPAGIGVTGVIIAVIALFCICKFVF
observation.type: binding result

INSERT INTO assay_data (binder, observation_type, measured_result) VALUES
  ('5.6.c3557 (antibody, V domains shown) VH: QVQLVESGGGVVQPGRSLRLSCAASGFSITNYAMHWVRQAPGRGLEWVALISYDGINQYYADSVKGRFTFSRDNSKNTLYLQMNSLRLDDTAVYYCARDPASPSDIFQDAFDIWGQGTTVIVSS VL: DIQMTQSPSSLSASVGDRVTITCRASQDISGWLAWYQQKPEKAPRSLIYATSSLQSGVPSRFSGSGSGTDFTLTISSLQPEDFATYYCQQYHSYPLTFGGGTKIQIK', 'binding result', 'binds'),
  ('5.6.c2773 (antibody, V domains shown) VH: QVELQESGPGLVKPSGTLSLTCTVSGGSISSYHWSWIRQPPGKGLEWIAYMYYSGSTNYNPSLKSRVTTSVETSKNQLSLKVSSVTAADTAVYYCARIVGDEIFFYGLDVWGQGTTVTVSS VL: DIQMTQSPSSVSASVGDRVTITCRASQDISILLAWYQQKPGKAPKLLIYAASSLQSGVPSRFSGSGSGTDFTLTISSLQPEDFATYYCQQANSFPWTFAQGTKVEIK', 'binding result', 'binds'),
  ('5.6.c2995 (antibody, V domains shown) VH: QVQLVESGGGVVQPGRSLRLSCAASGFSFSTYGMYWVRQAPGKGLEWVGVIWYDGSEKYHADFVKGRFTMSRDNSKNTLYLQMNSLRVEDTAVYYCARDLRPSTNSWYGYYYNAMDVWGQGTTVTVSS VL: QSVLTQPPSVSAAPGQRVTISCSGNSSNIGNNFVSWYQQLPGTAPKLLIYDNNSRPSGIPDRFSGSKSGTSATLGISGLQTGDEADYYCGSWDGSLSLWVFGGGTKLTVL', 'binding result', 'binds');
